System: MDA-MB-231 cells
Experiment: Cell proliferation assay (CellTiter-Glo), MDA-MB-231
Format: cell-based
Settings: Homo sapiens, MDA-MB-231, 72 h, 72 h treatment, Celltiter-Glo luminescence
Give measured pIC50 for each item. Keep answers brief.
Scale: negative log10 of molar concentration, which is what pIC50 denotes.

Which measured pIC50 value corresponds to `COC(=O)Nc1nc2c(Cc3ccc(F)cc3)cc3c(n2n1)C(C)(C)CN3C(=O)CN1C[C@@H](C)NC[C@@H]1CN1CCOC[C@H]1C` ? 8.00

Which measured pIC50 value corresponds to `C[C@@H]1CN(CC(=O)N2CC(C)(C)c3c2cc(Cc2ccc(F)cc2)n2c(C(F)(F)F)nnc32)[C@@H](CN2CCOC[C@H]2C)CN1` ? 5.43

Which measured pIC50 value corresponds to `C[C@@H]1CN(CC(=O)N2CC(C)(C)c3c2cc(Cc2ccc(F)cc2)c2cnc(C4CC4)n32)[C@@H](CN2CCOC[C@H]2C)CN1` ? 7.23

Which measured pIC50 value corresponds to `C[C@@H]1CN(CC(=O)N2CC(C)(C)c3c2cc(Cc2ccc(F)cc2)c2ncnn32)[C@@H](CN2Cc3ccncc3C2=O)CN1` ? 7.33

Which measured pIC50 value corresponds to `C[C@@H]1CN(CC(=O)N2CC(C)(C)c3c2cc(Cc2ccc(F)cc2)c2nn(C4COC4)c(=O)n32)[C@@H](CN2CCOC[C@H]2C)CN1` ? 7.48

Which measured pIC50 value corresponds to `C[C@@H]1CN(CC(=O)N2CC(C)(C)c3c2cc(Cc2ccc(F)cc2F)c2ncnn32)[C@@H](CN2CCOC[C@H]2C)CN1` ? 7.23

Which measured pIC50 value corresponds to `C[C@@H]1CN(CC(=O)N2CC(C)(C)c3c2cc(Cc2ccc(F)cc2)c2nn(Cc4cccnn4)c(=O)n32)[C@@H](CN2CCOC[C@H]2C)CN1` ? 6.64

Which measured pIC50 value corresponds to C[C@@H]1CN(CC(=O)N2CC(C)(C)c3c2cc(Cc2ccc(F)cc2)c2ncnn32)[C@@H](CN2CCC(C)(O)C[C@H]2C)CN1 (stereo partly drawn) ? 7.15

Which measured pIC50 value corresponds to `C[C@@H]1CN(CC(=O)N2CC(C)(C)c3c2cc(Cc2ccc(F)cc2)c2nnc(C(N)=O)n32)[C@@H](CN2CCOC[C@H]2C)CN1` ? 6.35

Which measured pIC50 value corresponds to C[C@@H]1CN(CC(=O)N2CC(C)(C)c3c2cc(Cc2ccc(F)cc2)c2nn(C4CCC4O)c(=O)n32)[C@@H](CN2CCOC[C@H]2C)CN1 (stereo partly drawn) [Compound 273A] ? 7.64

Which measured pIC50 value corresponds to `C[C@@H]1CN(CC(=O)N2CC(C)(C)c3c2cc(Cc2ccc(F)cc2)c2nccnc32)[C@@H](CN2CCOC[C@H]2C)CN1` ? 6.74

Which measured pIC50 value corresponds to `C[C@@H]1CN(CC(=O)N2CC(C)(C)c3c2cc(Cc2ccc(F)cc2)c2nn([C@@H]4CCOC4)c(=O)n32)[C@@H](CN2CCOC[C@H]2C)CN1` ? 8.05

Which measured pIC50 value corresponds to `C[C@@H]1CN(CC(=O)N2CC(C)(C)c3c2cc(Cc2ccc(F)cc2)c2nc(C(F)(F)F)cn32)[C@@H](CN2CCN(C3COC3)C[C@H]2C)CN1` ? 7.01

Which measured pIC50 value corresponds to `C[C@@H]1CN(CC(=O)N2CC(C)(C)c3c2cc(Cc2ccc(F)cc2)c2ncnn32)[C@@H](CN2CCN(C(N)=O)C[C@H]2C)CN1` ? 6.37

Which measured pIC50 value corresponds to `C[C@@H]1CN(CC(=O)N2CC(C)(C)c3c2cc(Cc2ccc(F)cc2)c2nnc(C(F)F)n32)[C@@H](CN2CCOC[C@H]2C)CN1` ? 6.70

Which measured pIC50 value corresponds to `C[C@@H]1CN(CC(=O)N2CC(C)(C)c3c2cc(Cc2cccc(F)c2)c2ncnn32)[C@@H](CN2CCOC[C@H]2C)CN1` ? 6.82

Which measured pIC50 value corresponds to `C[C@@H]1CN(CC(=O)N2CC(C)(C)c3c2cc(Cc2ccc(F)cc2)c2nn(CC(F)F)c(=O)n32)[C@@H](CN2CCOC[C@H]2C)CN1` ? 7.82

Which measured pIC50 value corresponds to `C[C@@H]1CN(CC(=O)N2CC(C)(C)c3c2cc(Cc2ccc(F)cc2)c2nc(C(F)F)nn32)[C@@H](CN2CCOC[C@H]2C)CN1` ? 7.30

Which measured pIC50 value corresponds to `C[C@@H]1CN(CC(=O)N2CC(C)(C)c3c2cc(Cc2ccc(F)cc2)c2nc(P(C)(C)=O)nn32)[C@@H](CN2CCOC[C@H]2C)CN1` ? 5.67

Which measured pIC50 value corresponds to `C[C@@H]1CN(CC(=O)N2CC(C)(C)c3c2cc(N2CCOc4cc(F)ccc42)c2ncnn32)[C@@H](CN2CCOC[C@H]2C)CN1` ? 6.01

Which measured pIC50 value corresponds to `C[C@@H]1CN(CC(=O)N2CC(C)(C)c3c2cc(Cc2ccc(F)cc2)c2nn(CC4(O)CCC4)c(=O)n32)[C@@H](CN2CCOC[C@H]2C)CN1` ? 7.90

Which measured pIC50 value corresponds to `C[C@@H]1CN(CC(=O)N2CC(C)(C)c3c2cc(Cc2ccc(F)cc2O)c2ncnn32)[C@@H](CN2CCOC[C@H]2C)CN1` ? 7.00

Which measured pIC50 value corresponds to `C[C@@H]1CN(CC(=O)N2CC(C)(C)c3c2cc(Cc2c(F)cc(F)cc2F)c2nncn32)[C@@H](CN2CCOC[C@H]2C)CN1` ? 6.37

Which measured pIC50 value corresponds to `C[C@@H]1CN(CC(=O)N2CC(C)(C)c3c2cc(Cc2ccc(F)cc2)c2c(Cl)cnn32)[C@@H](CN2CCOC[C@H]2C)CN1` ? 6.41

---

Tested on: MDA-MB-231 cells
Assay: Cell proliferation assay (CellTiter-Glo), MDA-MB-231
Format: cell-based
Conditions: Homo sapiens, MDA-MB-231, 72 h, 72 h treatment, Celltiter-Glo luminescence
Kindly apply the following: Condition met if IC50 is less than 30 nM, Condition not met in every other case.

Could you please tell me whether IC50 recorded for `C[C@@H]1CN(CC(=O)N2CC(C)(C)c3c2cc(Cc2ccc(F)cc2)c2nn(CC(C)(C)O)c(=O)n32)[C@@H](CN2C3CCC2COC3)CN1` is less than 30 nM? Condition not met

Could you please tell me whether IC50 recorded for `C[C@@H]1CN(CC(=O)N2CC(C)(C)c3c2cc(Cc2ccc(F)cc2)c2nc(N4CC5CC(C4)O5)nn32)[C@@H](CN2CCOC[C@H]2C)CN1` is less than 30 nM? Condition met

Could you please tell me whether IC50 recorded for `C[C@@H]1CN(CC(=O)N2CC(C)(C)c3c2cc(Cc2ccc(F)cc2)c2nc(=O)n(C)n32)[C@@H](CN2CCOC[C@H]2C)CN1` is less than 30 nM? Condition not met

Could you please tell me whether IC50 recorded for `C[C@@H]1CN(CC(=O)N2CC(C)(C)c3c2cc(Cc2ccc(F)cc2)c2nn(CC(C)(C)O)c(=O)n32)[C@@H](CN2CCC(F)(F)C[C@H]2C)CN1` is less than 30 nM? Condition met

Could you please tell me whether IC50 recorded for CC(O)Cn1nc2c(Cc3ccc(F)cc3)cc3c(n2c1=O)C(C)(C)CN3C(=O)CN1C[C@@H](C)NC[C@@H]1CN1CCOC[C@H]1C (stereo partly drawn) is less than 30 nM? Condition met

Could you please tell me whether IC50 recorded for C[C@@H]1CN(CC(=O)N2CC(C)(C)c3c2cc(Cc2ccc(F)cc2)c2nn(C4CC(O)C4)c(=O)n32)[C@@H](CN2CCOC[C@H]2C)CN1 (stereo partly drawn) is less than 30 nM? Condition met

Could you please tell me whether IC50 recorded for `C[C@@H]1CN(CC(=O)N2CC(C)(C)c3c2cc(Cc2ccc(F)cc2)c2nn(CC(C)(C)O)c(=O)n32)[C@@H](CN2C3COCC2C3)CN1` is less than 30 nM? Condition not met

Could you please tell me whether IC50 recorded for `C[C@@H]1CN(CC(=O)N2CC(C)(C)c3c2cc(Cc2ccc(F)cc2)c2nc(C(F)(F)F)cn32)[C@@H](CN2CCOC[C@H]2CO)CN1` is less than 30 nM? Condition not met

Could you please tell me whether IC50 recorded for `C[C@@H]1CN(CC(=O)N2CC(C)(C)c3c2cc(Cc2ccc(F)cc2)c2nc(C(N)=O)nn32)[C@@H](CN2CCOC[C@H]2C)CN1` is less than 30 nM? Condition not met

Could you please tell me whether IC50 recorded for `C[C@@H]1CN(CC(=O)N2CC(C)(C)c3c2cc(Cc2ccc(F)cc2)c2nc(Cl)cn32)[C@@H](CN2CCOC[C@H]2C)CN1` is less than 30 nM? Condition not met

Could you please tell me whether IC50 recorded for `C[C@@H]1CN(CC(=O)N2CC(C)(C)c3c2cc(Cc2ccc(F)cc2)c2nn(CCN(C)C)c(=O)n32)[C@@H](CN2CCOC[C@H]2C)CN1` is less than 30 nM? Condition not met

# credit: patent US20250179073A1
